target: ScSho1; assay: SPOT peptide array binding signal intensity (averaged, normalized) (arbitrary units (background-subtracted, floor 0; scale differs between SH3 domains)); higher = stronger binding of the SH3 domain to the peptide
Quantity: SPOT peptide array binding signal intensity

>  <Binder>
RPVPRRPSQPLNTLS

>  <Value Prefix>
=

>  <Numeric Readout>
163

$$$$
>  <Binder>
RKNRAPPQRPRFNRD

>  <Value Prefix>
=

>  <Numeric Readout>
845

$$$$
>  <Binder>
ANNQGPPNLPARDKS

>  <Value Prefix>
≤

>  <Numeric Readout>
0

$$$$
>  <Binder>
FVLRYYILIPHEQWD

>  <Value Prefix>
=

>  <Numeric Readout>
1100

$$$$
>  <Binder>
PIVPSSPAPPLPLSG

>  <Value Prefix>
≤

>  <Numeric Readout>
0

$$$$
>  <Binder>
RKLRTVPGVPLIHLT

>  <Value Prefix>
=

>  <Numeric Readout>
110

$$$$
>  <Binder>
RRTRLRPPTPLSQLL

>  <Value Prefix>
=

>  <Numeric Readout>
1180

$$$$
>  <Binder>
KTRLRPAFIQQLWSS

>  <Value Prefix>
=

>  <Numeric Readout>
431

$$$$
>  <Binder>
KRKRRLPVSEDTNTK

>  <Value Prefix>
=

>  <Numeric Readout>
808

$$$$
>  <Binder>
GSKSGPPPRPKKPST

>  <Value Prefix>
=

>  <Numeric Readout>
41

$$$$
>  <Binder>
LKQRFFLMFPKSIIW

>  <Value Prefix>
=

>  <Numeric Readout>
1060

$$$$
>  <Binder>
TKIRRRPQQPLTDFT

>  <Value Prefix>
=

>  <Numeric Readout>
148

$$$$
>  <Binder>
DFTLPPPPPPPGLDE

>  <Value Prefix>
≤

>  <Numeric Readout>
0

$$$$
>  <Binder>
KNPRRQLQIPRQQPS

>  <Value Prefix>
=

>  <Numeric Readout>
95

$$$$
>  <Binder>
YLTRPLPSTPNEDSR

>  <Value Prefix>
=

>  <Numeric Readout>
3780

$$$$
